TARGET SYSTEM: periplasmic domain of Rsc1598 (Ralstonia pseudosolanacearum, UniProt Q8XZ08)
Sequence (Q8XZ08 99-319 limits assumed): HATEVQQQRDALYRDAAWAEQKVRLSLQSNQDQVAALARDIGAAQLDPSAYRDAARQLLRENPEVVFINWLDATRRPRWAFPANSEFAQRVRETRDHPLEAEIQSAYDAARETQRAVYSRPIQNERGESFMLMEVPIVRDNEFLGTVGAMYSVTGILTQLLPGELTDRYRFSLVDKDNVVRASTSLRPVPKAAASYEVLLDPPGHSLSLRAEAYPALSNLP
PROTOCOL SUMMARY: biochemical
Assay type: binding, R. pseudosolanacearum OE1-1
RUN CONDITIONS: ITC single titration, ligand 6 mM; 25°C, 50 mM sodium phosphate buffer pH 7.6, protein 40 µM; read-out: Kd
ASSAY READOUT: pKd
The meaning of pKd here: minus log10 of the concentration in molar units.

Give the reported value of pKd for this record: O=CO 3.64

====

TARGET SYSTEM: periplasmic domain of Rsc1598 (Ralstonia pseudosolanacearum, UniProt Q8XZ08)
PROTOCOL SUMMARY: biochemical
Assay type: binding, R. pseudosolanacearum OE1-1
RUN CONDITIONS: ITC single titration, ligand 5 mM; 25°C, 50 mM sodium phosphate buffer pH 7.6, protein 40 µM; read-out: Kd
ASSAY READOUT: pKd
Entry type: numeric. Quantity: pKd, the -log10 of concentration in molar units.

Return value of pKd for input O=CO [Formic acid, formic acid] , no commentary. 4.15

====

TARGET SYSTEM: periplasmic domain of Rsc1598 (Ralstonia pseudosolanacearum, UniProt Q8XZ08)
PROTOCOL SUMMARY: biochemical
Type: binding, R. pseudosolanacearum OE1-1
RUN CONDITIONS: Kd, ITC single titration, ligand 4 mM; 25°C, 50 mM sodium phosphate buffer pH 7.6, protein 40 µM
ASSAY READOUT: pKd
Expect pKd as a plain number equal to -log10 of the molar concentration.

Give the reported value of pKd for this record: O=C(O)CC(O)(CC(=O)O)C(=O)O [Citric acid, citric acid] 3.86

====

TARGET SYSTEM: periplasmic domain of Rsc1598 (Ralstonia pseudosolanacearum, UniProt Q8XZ08)
PROTOCOL SUMMARY: biochemical
Type: binding, R. pseudosolanacearum OE1-1
RUN CONDITIONS: Kd, Average of titrations; 25°C, pH 7.6
ASSAY READOUT: Kd (µM)
Give your result in µM as a bare value.

Entry O=C(O)CC(O)(CC(=O)O)C(=O)O [Citric acid, citric acid] needs its Kd filled in; supply it. 155
